# credit: ChEMBL document CHEMBL5260830

Experiment: Brain concentration in mouse at 10 mg/kg po measured after 30 mins
Type: ADME, organism-based
Conditions: read-out: Ct
experimentalEndpoint: concentration at 0.5 h (ng/g)
# value in ng/g; strip the unit string

Give its concentration at 0.5 h value. Item: C[C@@]1(O)CC[C@H]2[C@H](CC[C@@H]3[C@@H]2CC[C@]2(C)[C@@H](C(=O)Cn4nccn4)CC[C@@H]32)C1
773

###

Here the recorded IC50 is given for each entry.
Target: GABA-A receptor; anion channel
Test: Displacement of [35S]-TBPS GABAA receptor in Wistar rat brain membrane incubated for 60 mins by competitive binding assay
Type: cell membranes
Write down the numeric answer in nM and omit the unit.

Provide value of IC50 for this record tested with GABA-A receptor; anion channel: COCCC(CO)(CCOC)C(=O)[C@H]1CC[C@H]2[C@@H]3CC[C@H]4C[C@@H]5O[C@@H]5C[C@]4(C)[C@H]3CC[C@]12C
5000

API: value(readout=IC50, system=GABA-A receptor; anion channel) for record CC(=O)[C@H]1CC[C@H]2[C@@H]3CC[C@H]4C[C@@H]5O[C@@H]5C[C@]4(C)[C@H]3CC[C@]12C
255

What measured IC50 is associated with COCC(=O)[C@H]1CC[C@H]2[C@@H]3CC[C@H]4C[C@@H]5O[C@@H]5C[C@]4(C)[C@H]3CC[C@]12C on GABA-A receptor; anion channel?
625

###

Assay: Plasma concentration in mouse at 10 mg/kg, po measured after 30 mins
Format: ADME, organism-based
experimentalEndpoint: concentration at 0.5 h (ng/mL)
Numbers only; they are read as ng/mL.

Any idea what concentration at 0.5 h was measured for C[C@@]1(O)CC[C@H]2[C@H](CC[C@@H]3[C@@H]2CC[C@]2(C)[C@@H](C(=O)Cn4nccn4)CC[C@@H]32)C1 ?
703

###

Biological target: GABA-A receptor; anion channel
Experiment: Displacement of [35S]-TBPS from rat synaptosomes GABAA receptor incubated for 90 mins by liquid scintillation counting method
Format: subcellular, Synaptosome
Below is a list of entries, each paired with its recorded IC50 value.
# number only, unit nM dropped from output

compound: CC(=O)[C@H]1CC[C@H]2[C@@H]3CC[C@H]4C[C@H](O)CC[C@]4(C)[C@H]3CC[C@]12C [BREXANOLONE]
unitAbbrev: nM
IC50: 86

Could you now consider this next compound?
Entry CC(=O)[C@H]1CC[C@H]2[C@@H]3CCC4=C[C@H](O)C[C@@H]5O[C@H](C[C@]12C)[C@@H]3[C@]45C has what IC50?
72

###

Assay: Brain concentration in mouse at 3 mg/kg po measured after 30 mins
Format: ADME, organism-based
Conditions: read-out: Ct
experimentalEndpoint: concentration at 0.5 h (ng/g)
// units = ng/g; emit number, no label

GET /values?readout=concentration at 0.5 h&item= C[C@@]1(O)CC[C@H]2[C@H](CC[C@@H]3[C@@H]2CC[C@]2(C)[C@@H](C(=O)Cn4nccn4)CC[C@@H]32)C1
87

###

Species on record: Mus musculus
Test: Anticonvulsant activity in 6-Hz induced seizure mouse model assessed as protection against 6-Hz induced seizure
Type: functional
experimentalEndpoint: ED50 (mg/kg)
Please reply with the bare figure in mg/kg and do not write the unit itself.

# example entries with known answers
smilesEntry: CC(=O)[C@H]1CC[C@H]2[C@@H]3CC[C@H]4C[C@H](O)CC[C@]4(C)[C@H]3C(=O)C[C@]12C
ED50, mg/kg: 8.8
//
smilesEntry: CC(=O)[C@H]1CC[C@H]2[C@@H]3CC[C@@H]4C[C@H](O)CC[C@]4(C)[C@H]3CC[C@]12C
ED50, mg/kg: 7.7

Then there is this molecule:
May I ask what ED50 has been recorded for C[C@]12CC[C@@H](O)C[C@@H]1CC[C@@H]1[C@@H]2CC[C@]2(C)[C@@H](C(=O)CO)CC[C@@H]12 ?
5

###

Assay: Plasma concentration in mouse at 3 mg/kg, po measured after 30 mins
Type: ADME, organism-based
experimentalEndpoint: concentration at 0.5 h (ng/mL)
Lab book: enter the figure in ng/mL, no units written.

Would you kindly share the measured concentration at 0.5 h for C[C@@]1(O)CC[C@H]2[C@H](CC[C@@H]3[C@@H]2CC[C@]2(C)[C@@H](C(=O)Cn4nccn4)CC[C@@H]32)C1 ?
87

###

Test: Therapeutic index, ratio of AD50 for mouse to ED50 for anticonvulsant activity in PTZ induced mouse administered orally
Type: toxicity
Settings: in vivo, route po, read-out: TI
experimentalEndpoint: selectivity ratio

smilesEntry: C[C@@]1(O)CC[C@@]2(C)[C@@H](CC[C@@H]3[C@@H]2CC[C@]2(C)[C@@H](c4cc(CO)on4)CC[C@@H]32)C1
selectivity ratio: 6

Note: attention shifts to another entry.
// selectivity ratio lookup, key: CC(=O)[C@H]1CC[C@H]2[C@@H]3CC[C@H]4C[C@](C)(O)CC[C@]4(C)[C@H]3CC[C@]12C
3

###

Measured IC50 accompanies every entry in the list below.
Molecular target: GABA-A receptor; anion channel
Experiment: Displacement of [35S]-TBPS from rat synaptosomes GABAA receptor incubated for 90 mins by liquid scintillation counting method
Format: subcellular, Synaptosome
Give just the numeric value; nM need not be written.

compound: CC(=O)[C@H]1CC[C@H]2[C@@H]3CC[C@@H]4C[C@H](O)C[C@@H]5O[C@H](C[C@]12C)[C@@H]3[C@]45C
unitAbbrev: nM
IC50: 490

// lookup IC50 for CC(=O)[C@H]1CC[C@H]2[C@@H]3C[C@H]4OC[C@@]5(CC[C@@H](O)CC45)[C@H]3CC[C@]12C (stereo partly drawn)
141

Recorded IC50 of CC(=O)[C@H]1CC[C@H]2[C@@H]3CC[C@H]4C[C@H](O)C[C@H]5O[C@H](C[C@]12C)[C@@H]3[C@]45C , please.
93
